Molecular target: human mAChR M1 (Homo sapiens, UniProt P11229)
Construct: host or cells: CHO-K1 cells (ATCC), stably transfected using Lipofectamine2000
Sequence (P11229 whole entry): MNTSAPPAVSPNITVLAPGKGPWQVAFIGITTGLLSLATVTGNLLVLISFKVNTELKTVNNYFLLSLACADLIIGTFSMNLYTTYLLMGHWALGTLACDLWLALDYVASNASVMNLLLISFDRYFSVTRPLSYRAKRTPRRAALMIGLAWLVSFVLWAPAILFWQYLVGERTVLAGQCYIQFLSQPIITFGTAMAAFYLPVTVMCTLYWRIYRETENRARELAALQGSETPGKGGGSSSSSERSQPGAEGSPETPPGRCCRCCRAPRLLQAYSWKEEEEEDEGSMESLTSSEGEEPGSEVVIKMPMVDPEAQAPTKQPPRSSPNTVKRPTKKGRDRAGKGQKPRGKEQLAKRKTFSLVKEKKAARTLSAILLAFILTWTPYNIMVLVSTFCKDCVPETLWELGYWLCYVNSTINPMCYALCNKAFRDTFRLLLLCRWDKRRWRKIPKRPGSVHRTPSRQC
Assay: mAChR M1 cell-based functional assay (calcium mobilization), agonist activity upon compound addition
Conditions: CHO-K1 cells expressing hM1; relative to the maximum for acetylcholine
Task for the reader: assign each of the following molecules its reported Emax.

A selection of reference data follows.
{"columns": ["Molecule", "Outcome Measure", "Value Reported"],
 "data": [
  ["Cn1cc(-c2ccc(Cn3cc(C(=O)N[C@H]4CCOC[C@@H]4O)c4occc4c3=O)c(F)c2)cn1 [Compound D12]", "Emax", "< 5%"],
  ["O=C(N[C@H]1CCOC[C@@H]1O)c1cn(Cc2ccc(-n3cccn3)cc2)c(=O)n2ccnc12 [Compound B12]", "Emax", "55%"],
  ["Cc1cncc(-c2cc(F)c(Cn3cc(C(=O)N[C@H]4CCC[C@@H]4O)c4ncccc4c3=O)c(F)c2)c1 [Compound A44]", "Emax", "< 5%"],
  ["Cn1cc2c(-c3cc(F)c(Cn4cc(C(=O)N[C@H]5CCC[C@@H]5O)c5nccn5c4=O)c(F)c3)cccc2n1 [Compound B21]", "Emax", "< 5%"],
  ["Cn1ccc(-c2ccc(Cn3cc(C(=O)N[C@H]4CCOC[C@@H]4O)c4ncccc4c3=O)c(F)c2)n1 [Compound A1]", "Emax", "20%"],
  ["Cc1cn2c(=O)n(Cc3c(F)cc(-c4cccc5nn(C)cc45)cc3F)cc(C(=O)N[C@H]3CCOC[C@@H]3O)c2n1 [Compound B29]", "Emax", "< 5%"]
]}

The following molecules each have a reported value; give each one's Emax.
1. O=C(N[C@H]1CCCCC[C@@H]1O)c1cn(Cc2ccc(-n3cccn3)cc2)c(=O)c2ccoc12 [Compound D5]
2. Cc1ncc(-c2cc(F)c(Cn3cc(C(=O)N[C@H]4CCOC[C@@H]4O)c4ncccc4c3=O)c(F)c2)s1 [Compound A51]
3. Cc1cn2c(=O)n(Cc3ccc(-c4cnn(C)c4)cc3F)cc(C(=O)N[C@H]3CCCC[C@@H]3O)c2n1 [Compound B24]
4. Cn1cc2c(-c3cc(F)c(Cn4cc(C(=O)NC5CC6(COC6)C5)c5occc5c4=O)c(F)c3)cccc2n1 [Compound D24]

stdout:
1: < 5%; 2: < 5%; 3: < 5%; 4: < 5%

The following molecules each have a reported value; give each one's Emax.
1. O=C(N[C@H]1CCCC[C@@H]1O)c1cn(Cc2ccc(-c3cscn3)cc2)c(=O)c2cccnc12 [Compound A59]
2. Cn1cc2c(-c3cc(F)c(Cn4cc(C(=O)N[C@H]5CCCCC[C@@H]5O)c5nccn5c4=O)c(F)c3)cccc2n1 [Compound B19]
3. Cn1nccc1-c1ccc(Cn2cc(C(=O)N[C@H]3CCOC[C@@H]3O)c3nccn3c2=O)c(F)c1 [Compound B31]
4. Cn1cc(-c2ccc(Cn3cc(C(=O)N[C@H]4CCC[C@@H]4O)c4ncccc4c3=O)c(F)c2)cn1 [Compound A8]

stdout:
1. < 5%
2. 51%
3. 6%
4. < 5%

---

Target: human mAChR M1 (Homo sapiens, UniProt P11229)
Construct: host or cells: CHO-K1 cells (ATCC), stably transfected using Lipofectamine2000
Test: mAChR M1 cell-based functional assay (calcium mobilization), PAM activity: increase in the EC20 acetylcholine response
Settings: CHO-K1 cells expressing hM1; potentiation of EC20 acetylcholine response
Task for the reader: assign each of the following compounds its reported EC50.
One number for each entry, in µM.

{"columns": ["Compound String", "Unit Text", "EC50"],
 "data": [
  ["Cn1ccc(-c2ccc(Cn3cc(C(=O)N[C@@H]4CC[C@H]4O)c4nccn4c3=O)c(F)c2)n1", "µM", 3.22]
]}

The following compounds each have a reported value; give each one's EC50.
1. Cn1nccc1-c1cc(F)c(Cn2cc(C(=O)N[C@H]3CCCC[C@@H]3O)c3ncccc3c2=O)c(F)c1
2. Cc1ccc(-c2cc(F)c(Cn3cc(C(=O)N[C@H]4CCOC[C@@H]4O)c4ncccc4c3=O)c(F)c2)cn1
3. Cn1cc(-c2ccc(Cn3cc(C(=O)N[C@H]4CCOC[C@@H]4O)c4nccn4c3=O)cn2)cn1
4. O=C(N[C@H]1CCOC[C@@H]1O)c1cn(Cc2c(F)cc(-c3ccns3)cc2F)c(=O)c2cccnc12

stdout:
1: 0.66; 2: 0.62; 3: 0.48; 4: 1.79
